# Experiment: Cytotoxicity assay in THP-1 cells
# Format: cell-based, human
# Settings: human; THP-1 cells; lethal concentration for 50% of the cell population; read-out: LC50 (the source's name)
Property name: CC50 (µg/mL)
Just the number in µg/mL, nothing appended.

Some solved entries appear below for comparison.
Compound: CCCCCCNC(=O)c1cc([N+](=O)[O-])cc([N+](=O)[O-])c1 [Compound 7b, N-hexyl-3.5-dinitrobenzamide]
Measured value: 361
--
Compound: CCCCCCOC(=O)c1cc([N+](=O)[O-])cc([N+](=O)[O-])c1
Measured value: 528
--
Compound: CCCCNC(=O)c1cc([N+](=O)[O-])cc([N+](=O)[O-])c1 [Compound 7a, N-butyl-3.5-dinitrobenzamide]
Measured value: 26

API: the following record is the query input.
The compound listed as CCCCCCCCCCNC(=O)c1cc([N+](=O)[O-])cc([N+](=O)[O-])c1 [Compound 7d, N-decyl-3.5-dinitrobenzamide] has a reported CC50 of 53

* * *

# Degradation (%) 72h per record follows
# Experiment: Chemical stability in phosphate buffer pH 7.4
# Settings: 72h
Answer with a number only, understood to be in %.

Previously resolved entries follow.
Molecule: CCCCNC(=O)c1cc([N+](=O)[O-])cc([N+](=O)[O-])c1 [Compound 7a, N-butyl-3.5-dinitrobenzamide]
Unit annotation: %
Degradation (%) 72h: 0

Molecule: CCCCCCCCNC(=O)c1ccccc1 [Compound 5c, N-octyl-benzamide]
Unit annotation: %
Degradation (%) 72h: 0

Molecule: CCCCCCCCNC(=O)c1ccc([N+](=O)[O-])cc1 [Compound 6c, N-octyl-4-nitrobenzamide]
Unit annotation: %
Degradation (%) 72h: 0

Please fill in: Degradation (%) 72h reported for CCCCCCCCCCCCNC(=O)c1cc([N+](=O)[O-])cc(C(F)(F)F)c1 [Compound 8e] = 0

* * *

# Experiment: Stability in human plasma (enzymatic hydrolysis)
# Settings: 72h
# Degradation (%) 72h per record follows
Your answer should be a plain number; it is taken to be in %.

Molecule: CCCCNC(=O)c1ccc([N+](=O)[O-])cc1 [Compound 6a, N-butyl-4-nitrobenzamide]
Degradation (%) 72h: 32

Molecule: CCCCCCCCCCCCOC(=O)c1cc([N+](=O)[O-])cc([N+](=O)[O-])c1
Degradation (%) 72h: 65

Molecule: CCCCCCCCNC(=O)c1ccccc1 [Compound 5c, N-octyl-benzamide]
Degradation (%) 72h: 0

Molecule: CCCCCCCCNC(=O)c1cc([N+](=O)[O-])cc(C(F)(F)F)c1
Degradation (%) 72h: 0

Okay, next one:
// Degradation (%) 72h value for CCCCCCCCOC(=O)c1ccccc1 [Compound 1c, Octyl benzoate] : 84

* * *

# Test system: Mycobacterium tuberculosis H37Rv
# Experiment: MIC and MBC by broth microdilution against M. tuberculosis H37Rv
# Format: cell-based, Mycobacterium tuberculosis H37Rv (ATCC 27294)
# Settings: Mycobacterium tuberculosis, H37RV, M. tuberculosis H37Rv; Table 3; read-out: MBC
Listed next: entries and their corresponding MBC.
Only the number, expressed in µg/mL, is required.

Example cases with answers are listed next.
Compound: CCCCCCCCNC(=O)c1cc([N+](=O)[O-])cc(C(F)(F)F)c1
MBC (µg/mL): 0.063
--
Compound: CCCCCCOC(=O)c1cc([N+](=O)[O-])cc(C(F)(F)F)c1
MBC (µg/mL): 1020
--
Compound: CCCCCCCCCCOC(=O)c1cc([N+](=O)[O-])cc(C(F)(F)F)c1
MBC (µg/mL): 256
--
Compound: CCCCNC(=O)c1ccccc1 [Compound 5a, N-butyl-benzamide]
MBC (µg/mL): 256

Kindly review the next compound as well.
Sample `CCCCOC(=O)c1cc([N+](=O)[O-])cc(C(F)(F)F)c1` ; MBC observed: 1020

* * *

# System: Mycobacterium smegmatis homogenate
# Experiment: Stability in Mycobacterium smegmatis homogenate (enzymatic hydrolysis)
# Settings: Mycobacterium smegmatis homogenate, 37°C; 24h
# note: boundary value 3% maps to NO; Degradation (%) 24h below it maps to YES

Some solved cases for reference:
Compound: CCCCCCCCCCCCOC(=O)c1ccccc1 [Compound 1e, Dodecyl benzoate]
Assigned category: NO
--
Compound: CCCCNC(=O)c1cc([N+](=O)[O-])cc(C(F)(F)F)c1
Assigned category: NO
--
Compound: CCCCCCOC(=O)c1ccccc1 [Compound 1b, Hexyl benzoate]
Assigned category: NO
--
Compound: CCCCCCCCOC(=O)c1ccc([N+](=O)[O-])cc1 [Compound 2c, Octyl 4-nitrobenzoate]
Assigned category: NO
--
Compound: CCCCCCCCCCOC(=O)c1cc([N+](=O)[O-])cc([N+](=O)[O-])c1 [Compound 3d, Decyl 3,5-dinitrobenzoate]
Assigned category: NO

Ask: Strictly below 3% in Degradation (%) 24h? CCCCCCCCNC(=O)c1ccccc1 [Compound 5c, N-octyl-benzamide]
Result: YES

Ask: Degradation (%) 24h strictly < 3% for this compound? `CCCCOC(=O)c1cc([N+](=O)[O-])cc(C(F)(F)F)c1`
Result: NO

Ask: Find out if reported Degradation (%) 24h for `CCCCCCNC(=O)c1cc([N+](=O)[O-])cc(C(F)(F)F)c1` is less than 3%
Result: NO

* * *

// values below are reported Degradation (%) 24h
# Experiment: Chemical stability in phosphate buffer pH 7.4
# Settings: 24h
State just the number; it will be interpreted in %.

Compound: CCCCCCCCNC(=O)c1ccccc1 [Compound 5c, N-octyl-benzamide]
Degradation (%) 24h: 0

Form field Degradation (%) 24h, entry CCCCNC(=O)c1ccc([N+](=O)[O-])cc1 [Compound 6a, N-butyl-4-nitrobenzamide] : 0

Record `CCCCOC(=O)c1cc([N+](=O)[O-])cc([N+](=O)[O-])c1` , field Degradation (%) 24h: 10

Lab note: `CCCCCCCCOC(=O)c1cc([N+](=O)[O-])cc([N+](=O)[O-])c1` gave Degradation (%) 24h of 0

* * *

# key: entry, value: Degradation (%) 48h
# Experiment: Stability in human plasma (enzymatic hydrolysis)
# Settings: 48h
All answers are understood in %, so give the number only.

Compound: CCCCCCCCCCOC(=O)c1cc([N+](=O)[O-])cc(C(F)(F)F)c1 [Compound 4d]
Degradation (%) 48h: 45

Compound: CCCCCCCCOC(=O)c1cc([N+](=O)[O-])cc(C(F)(F)F)c1 [Compound 4c]
Degradation (%) 48h: 67

Compound: CCCCCCCCCCCCOC(=O)c1cc([N+](=O)[O-])cc(C(F)(F)F)c1 [Compound 4e]
Degradation (%) 48h: 2

Compound: CCCCCCOC(=O)c1cc([N+](=O)[O-])cc([N+](=O)[O-])c1 [Compound 3b]
Degradation (%) 48h: 93

// next entry
Recorded result, CCCCNC(=O)c1ccccc1 [Compound 5a, N-butyl-benzamide] , Degradation (%) 48h: 0

* * *

# Tested on: human monocytic cell line THP-1 (ATCC56 TIB202)
# Experiment: Cytotoxicity assay in THP-1 cells
# Assay type: cell-based
# Settings: toxicity/activity index: ratio LC50 (THP-1) / MIC (M. tuberculosis H37Rv)
Property name: T/A
Please reply with the number alone, leaving off any unit.

Worked examples follow.
Compound: CCCCNC(=O)c1cc([N+](=O)[O-])cc(C(F)(F)F)c1
Property name: T/A
Measured value: 21
--
Compound: CCCCCCNC(=O)c1cc([N+](=O)[O-])cc(C(F)(F)F)c1
Property name: T/A
Measured value: 46
--
Compound: CCCCCCOC(=O)c1cc([N+](=O)[O-])cc([N+](=O)[O-])c1
Property name: T/A
Measured value: 17

Summary for this compound, CCCCCCCCCCNC(=O)c1cc([N+](=O)[O-])cc([N+](=O)[O-])c1 [Compound 7d, N-decyl-3.5-dinitrobenzamide] : T/A is 841

The compound identified as CCCCCCCCOC(=O)c1ccccc1 [Compound 1c, Octyl benzoate] registered its T/A at 6

GET /value?item= CCCCCCCCNC(=O)c1ccc([N+](=O)[O-])cc1 [Compound 6c, N-octyl-4-nitrobenzamide] &field=T/A returns 2

Kindly note the recorded T/A for CCCCCCCCOC(=O)c1ccc([N+](=O)[O-])cc1 [Compound 2c, Octyl 4-nitrobenzoate] , which is 82

# T/A of CCCCCCNC(=O)c1cc([N+](=O)[O-])cc([N+](=O)[O-])c1 [Compound 7b, N-hexyl-3.5-dinitrobenzamide] = 11645

The recorded T/A for CCCCCCCCCCCCNC(=O)c1cc([N+](=O)[O-])cc([N+](=O)[O-])c1 [Compound 7e, N-dodecyl-3.5-dinitrobenzamide] is 144

* * *

# Tested on: Mycobacterium smegmatis homogenate
# Experiment: Stability in Mycobacterium smegmatis homogenate (enzymatic hydrolysis)
# Settings: Mycobacterium smegmatis homogenate, 37°C; 24h
// 0.0 strictly below 20% in Degradation (%) 24h; 1.0 otherwise

Compound: CCCCCCOC(=O)c1cc([N+](=O)[O-])cc(C(F)(F)F)c1
Assigned category: 0.0
//
Compound: CCCCCCOC(=O)c1ccc([N+](=O)[O-])cc1
Assigned category: 1.0

Ask: Is Degradation (%) 24h for CCCCCCCCOC(=O)c1ccccc1 [Compound 1c, Octyl benzoate] at or above 20%?
Result: 1.0

Ask: I'd appreciate it if you could say whether `CCCCCCCCCCCCOC(=O)c1ccc([N+](=O)[O-])cc1` has Degradation (%) 24h at least equal to 20%.
Result: 0.0

Ask: In plain terms: is recorded Degradation (%) 24h at least 20% for `CCCCCCCCCCCCNC(=O)c1cc([N+](=O)[O-])cc(C(F)(F)F)c1` ?
Result: 0.0

Ask: Given CCCCCCCCCCCCNC(=O)c1cc([N+](=O)[O-])cc([N+](=O)[O-])c1 [Compound 7e, N-dodecyl-3.5-dinitrobenzamide] , state whether its Degradation (%) 24h is at least 20%.
Result: 0.0

Ask: Is it the case that `CCCCCCCCOC(=O)c1cc([N+](=O)[O-])cc([N+](=O)[O-])c1` has Degradation (%) 24h reaching or exceeding 20%?
Result: 0.0

Ask: Hello, I need to know if `CCCCOC(=O)c1ccc([N+](=O)[O-])cc1` has measured Degradation (%) 24h not below 20%. Thanks!
Result: 1.0

Ask: State whether the measured Degradation (%) 24h reaches 20%, counting equality as reaching it, for `CCCCCCOC(=O)c1cc([N+](=O)[O-])cc([N+](=O)[O-])c1`
Result: 0.0

Ask: Is the recorded value of Degradation (%) 24h equal to or greater than 20% for this compound? CCCCCCNC(=O)c1ccccc1 [Compound 5b, N-hexyl-benzamide]
Result: 0.0

Ask: Please indicate if the recorded Degradation (%) 24h for CCCCCCCCNC(=O)c1cc([N+](=O)[O-])cc([N+](=O)[O-])c1 [Compound 7c, N-octyl-3.5-dinitrobenzamide] meets or exceeds 20%.
Result: 0.0

Ask: Kindly determine if Degradation (%) 24h recorded for CCCCCCCCCCNC(=O)c1cc([N+](=O)[O-])cc([N+](=O)[O-])c1 [Compound 7d, N-decyl-3.5-dinitrobenzamide] is above or exactly 20%.
Result: 0.0

Ask: Threshold query (Degradation (%) 24h >= 20%) on `CCCCCCCCCCOC(=O)c1cc([N+](=O)[O-])cc(C(F)(F)F)c1`
Result: 0.0

Ask: Say whether CCCCNC(=O)c1ccccc1 [Compound 5a, N-butyl-benzamide] shows Degradation (%) 24h of 20% or more.
Result: 0.0

Ask: Degradation (%) 24h >= 20% for `CCCCCCCCCCCCOC(=O)c1cc([N+](=O)[O-])cc([N+](=O)[O-])c1` ?
Result: 0.0

Ask: Would you say `CCCCCCCCCCNC(=O)c1cc([N+](=O)[O-])cc(C(F)(F)F)c1` shows Degradation (%) 24h at minimum 20%?
Result: 0.0
